- measurement.notes: endothelial E-selectin expression blockers – imaging, HUVEC, immunofluorescence, MLSMR starter and 10KST1 sets, primary screen (AID 487);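 note: 100% = median nuclei count of all wells on the same plate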
- conditions: HUVEC TNFalpha-induced E-selectin immunofluorescence imaging, at 2 µM; measured here: cell number, toxicity
metric.name: nuclei count (%)

[
  {
    "compound": "NC(=O)C1(N2CCCCC2)CCN(C2CC(=O)N(Cc3cccs3)C2=O)CC1 (configuration not stated)",
    "metric.name": "nuclei count",
    "scale.unit": "%",
    "experimental.result": 84.9
  },
  {
    "compound": "O=C(CCCn1c(=O)c2sccc2n(Cc2ccc(F)cc2)c1=O)NCc1ccco1",
    "metric.name": "nuclei count",
    "scale.unit": "%",
    "experimental.result": 106
  },
  {
    "compound": "CCOc1ccc2[nH]c(=O)c(CN(Cc3ccccc3)C(=O)N3CCCC3)cc2c1",
    "metric.name": "nuclei count",
    "scale.unit": "%",
    "experimental.result": 48.2
  },
  {
    "compound": "COc1ccccc1NC(=O)N1c2ccc(F)cc2CCC1C (configuration not stated)",
    "metric.name": "nuclei count",
    "scale.unit": "%",
    "experimental.result": 111
  },
  {
    "compound": "COc1ccc(OC)c(C2C3=C(CCCC3=O)Nc3c2c(=O)n(C)c(=O)n3C)c1 (configuration not stated)",
    "metric.name": "nuclei count",
    "scale.unit": "%",
    "experimental.result": 96.3
  },
  {
    "compound": "CC1CC(C)CN(CCCNC(=O)COc2cc(=O)n(C)c3ccccc23)C1 (configuration not stated)",
    "metric.name": "nuclei count",
    "scale.unit": "%",
    "experimental.result": 122
  },
  {
    "compound": "CC(=O)C1=C(O)C(=O)N(Cc2ccco2)C1c1ccc2c(c1)OCO2 (configuration not stated)",
    "metric.name": "nuclei count",
    "scale.unit": "%",
    "experimental.result": 116
  },
  {
    "compound": "CCOc1ccc(C(c2nnnn2Cc2ccccc2)N2CCN(C(=O)c3ccco3)CC2)cc1 (configuration not stated)",
    "metric.name": "nuclei count",
    "scale.unit": "%",
    "experimental.result": 104
  },
  {
    "compound": "O=C(c1ccc(F)cc1)C1CCN(CCn2c(=O)[nH]c3ccccc3c2=O)CC1",
    "metric.name": "nuclei count",
    "scale.unit": "%",
    "experimental.result": 112
  },
  {
    "compound": "CCC(=O)N1CCc2cc(S(=O)(=O)CCC(=O)Nc3nc(C)cs3)ccc21",
    "metric.name": "nuclei count",
    "scale.unit": "%",
    "experimental.result": 158
  },
  {
    "compound": "CC(C)(C)n1nnnc1C(c1cccc(C#N)c1)N1CCC(Cc2ccccc2)CC1 (configuration not stated)",
    "metric.name": "nuclei count",
    "scale.unit": "%",
    "experimental.result": 128
  },
  {
    "compound": "O=c1cc(-c2ccco2)oc2ccc(Cl)cc12",
    "metric.name": "nuclei count",
    "scale.unit": "%",
    "experimental.result": 111
  },
  {
    "compound": "Cc1cccc(OCC(=O)N2CCC(c3ccccc3)C2)c1 (configuration not stated)",
    "metric.name": "nuclei count",
    "scale.unit": "%",
    "experimental.result": 115
  },
  {
    "compound": "CCn1c(CC(=O)Nc2cccc(OC)c2)nnc1SCC(=O)Nc1nccs1",
    "metric.name": "nuclei count",
    "scale.unit": "%",
    "experimental.result": 112
  },
  {
    "compound": "C=CCN1C(=O)/C(=C2\\SC(N3CCOCC3)=NC2=O)c2cc(Br)ccc21",
    "metric.name": "nuclei count",
    "scale.unit": "%",
    "experimental.result": 86.1
  },
  {
    "compound": "COC(=O)Cc1c(C)nc2nc(-c3ccco3)[nH]n2c1=O",
    "metric.name": "nuclei count",
    "scale.unit": "%",
    "experimental.result": 105
  },
  {
    "compound": "O=C1CCc2nc3sc4c(c3c(=O)n2N1)CCCC4",
    "metric.name": "nuclei count",
    "scale.unit": "%",
    "experimental.result": 98.8
  },
  {
    "compound": "CC(=O)SCC(=O)N=c1sc2cc(F)ccc2n1C",
    "metric.name": "nuclei count",
    "scale.unit": "%",
    "experimental.result": 104
  },
  {
    "compound": "O=C1c2ccccc2-c2nc3ncnn3c(-c3ccccc3)c21",
    "metric.name": "nuclei count",
    "scale.unit": "%",
    "experimental.result": 107
  },
  {
    "compound": "O=C(COc1ncnc2ccccc12)NCc1ccc2c(c1)OCO2",
    "metric.name": "nuclei count",
    "scale.unit": "%",
    "experimental.result": 105
  },
  {
    "compound": "CCN1CCN(C(=O)N[C@@H](C(=O)N[C@@H]2C(=O)N3[C@@H]2SC(C)(C)[C@@H]3C(=O)O)c2ccccc2)C(=O)C1=O",
    "metric.name": "nuclei count",
    "scale.unit": "%",
    "experimental.result": 101
  },
  {
    "compound": "CCSc1nnc(NC(=O)c2nn(C(C)C)c(=O)c3ccccc23)s1",
    "metric.name": "nuclei count",
    "scale.unit": "%",
    "experimental.result": 94
  }
]

---

- measurement.target: Alpha-2C adrenergic receptor (Homo sapiens) (UniProt P18825)
- Sequence (P18825 whole entry, looked up): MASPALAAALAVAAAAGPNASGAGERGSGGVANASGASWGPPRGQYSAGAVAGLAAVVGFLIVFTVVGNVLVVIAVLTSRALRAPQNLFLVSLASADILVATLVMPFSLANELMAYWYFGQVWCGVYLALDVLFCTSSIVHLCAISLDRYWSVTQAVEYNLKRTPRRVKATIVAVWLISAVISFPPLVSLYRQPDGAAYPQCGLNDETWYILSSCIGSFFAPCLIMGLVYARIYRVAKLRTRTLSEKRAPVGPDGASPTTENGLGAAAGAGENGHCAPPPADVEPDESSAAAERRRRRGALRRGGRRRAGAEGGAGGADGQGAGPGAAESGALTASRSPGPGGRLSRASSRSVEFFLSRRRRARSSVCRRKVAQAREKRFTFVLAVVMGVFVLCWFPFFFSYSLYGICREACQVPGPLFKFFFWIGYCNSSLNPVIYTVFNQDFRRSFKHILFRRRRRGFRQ
- measurement.notes: compounds altering alpha2C-coupled GIRK flux – cell-based, HEK293 alpha2C/GIRK1/2, thallium flux, primary screen (AID 624);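 note: slope of fluorescence ratio to pre-addition baseline per second over 15 to 24 s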
- conditions: thallium flux BTC fluorescence, at 10 µM, actives lie on both sides

[
  {
    "compound": "CN(C)CCCC1(c2ccc(F)cc2)OCc2cc(C#N)ccc21 (stereo not given)",
    "measurement.target": "Alpha-2C adrenergic receptor (Homo sapiens) (UniProt P18825)",
    "slope": 0.00413
  },
  {
    "compound": "CC(=O)O[C@@]12CO[C@@H]1C[C@H](O)[C@@]1(C)C(=O)[C@H](O)C3=C(C)[C@@H](OC(=O)[C@H](O)[C@@H](NC(=O)OC(C)(C)C)c4ccccc4)C[C@](O)([C@@H](OC(=O)c4ccccc4)[C@H]21)C3(C)C",
    "measurement.target": "Alpha-2C adrenergic receptor (Homo sapiens) (UniProt P18825)",
    "slope": 0.00555
  },
  {
    "compound": "Cc1cc(C)nc(NS(=O)(=O)c2ccc(N)cc2)n1",
    "measurement.target": "Alpha-2C adrenergic receptor (Homo sapiens) (UniProt P18825)",
    "slope": 0.00415
  },
  {
    "compound": "CN(C)CCCN1c2ccccc2Sc2ccccc21",
    "measurement.target": "Alpha-2C adrenergic receptor (Homo sapiens) (UniProt P18825)",
    "slope": 0.00267
  },
  {
    "compound": "O=C1NC(=O)C(c2ccccc2)(c2ccccc2)N1",
    "measurement.target": "Alpha-2C adrenergic receptor (Homo sapiens) (UniProt P18825)",
    "slope": 0.00448
  },
  {
    "compound": "CCCC1O[C@@H]2C[C@H]3[C@@H]4CCC5=CC(=O)C=C[C@]5(C)[C@H]4[C@@H](O)C[C@]3(C)[C@]2(C(=O)CO)O1 (stereo not given in full)",
    "measurement.target": "Alpha-2C adrenergic receptor (Homo sapiens) (UniProt P18825)",
    "slope": 0.00479
  },
  {
    "compound": "C[C@H]1C[C@H]2[C@@H]3CCC4=CC(=O)C=C[C@]4(C)[C@@]3(Cl)[C@@H](O)C[C@]2(C)[C@@]1(O)C(=O)CO",
    "measurement.target": "Alpha-2C adrenergic receptor (Homo sapiens) (UniProt P18825)",
    "slope": 0.00488
  },
  {
    "compound": "Cc1cccc(Nc2ccccc2C(=O)O)c1C",
    "measurement.target": "Alpha-2C adrenergic receptor (Homo sapiens) (UniProt P18825)",
    "slope": 0.00454
  },
  {
    "compound": "C[C@]12C=CC(=O)C=C1CC[C@H]1[C@@H]3C[C@@H](O)[C@](O)(C(=O)CO)[C@@]3(C)C[C@H](O)[C@@]12F",
    "measurement.target": "Alpha-2C adrenergic receptor (Homo sapiens) (UniProt P18825)",
    "slope": 0.0055
  },
  {
    "compound": "COc1ccc([C@@H]2Sc3ccccc3N(CCN(C)C)C(=O)[C@@H]2OC(C)=O)cc1",
    "measurement.target": "Alpha-2C adrenergic receptor (Homo sapiens) (UniProt P18825)",
    "slope": 0.00609
  },
  {
    "compound": "CN(C)CCOC(c1ccccc1)c1ccccc1",
    "measurement.target": "Alpha-2C adrenergic receptor (Homo sapiens) (UniProt P18825)",
    "slope": 0.00555
  },
  {
    "compound": "O=C(O)CCC(=O)Nc1ccc(S(=O)(=O)Nc2nccs2)cc1",
    "measurement.target": "Alpha-2C adrenergic receptor (Homo sapiens) (UniProt P18825)",
    "slope": 0.00423
  },
  {
    "compound": "CCCc1cc(=O)[nH]c(=S)[nH]1",
    "measurement.target": "Alpha-2C adrenergic receptor (Homo sapiens) (UniProt P18825)",
    "slope": 0.00437
  },
  {
    "compound": "CCCNC(=O)C1CN(S(=O)(=O)c2ccccc2)CCN1S(=O)(=O)c1ccccc1 (stereo not given)",
    "measurement.target": "Alpha-2C adrenergic receptor (Homo sapiens) (UniProt P18825)",
    "slope": 0.00614
  },
  {
    "compound": "Oc1c(Cl)cc(Cl)cc1Sc1cc(Cl)cc(Cl)c1O",
    "measurement.target": "Alpha-2C adrenergic receptor (Homo sapiens) (UniProt P18825)",
    "slope": 0.00369
  },
  {
    "compound": "Cc1cc(C)cc(N(CC(=O)Nc2cccc(C)n2)S(=O)(=O)c2c(C)noc2C)c1",
    "measurement.target": "Alpha-2C adrenergic receptor (Homo sapiens) (UniProt P18825)",
    "slope": 0.00547
  },
  {
    "compound": "O=C1[C@@H]2C(c3ccccc3Cl)=NO[C@@H]2C(=O)N1Cc1ccccc1",
    "measurement.target": "Alpha-2C adrenergic receptor (Homo sapiens) (UniProt P18825)",
    "slope": 0.00529
  },
  {
    "compound": "O=C(NC1CCCCCC1)C1c2ccccc2C(=O)N1Cc1cccnc1 (stereo not given)",
    "measurement.target": "Alpha-2C adrenergic receptor (Homo sapiens) (UniProt P18825)",
    "slope": 0.00527
  },
  {
    "compound": "CCc1oc2ccccc2c1C(=O)c1cc(Br)c(O)c(Br)c1",
    "measurement.target": "Alpha-2C adrenergic receptor (Homo sapiens) (UniProt P18825)",
    "slope": 0.00421
  },
  {
    "compound": "CNC(=O)Oc1ccc2c(c1)[C@]1(C)CCN(C)[C@@H]1N2C",
    "measurement.target": "Alpha-2C adrenergic receptor (Homo sapiens) (UniProt P18825)",
    "slope": 0.00657
  },
  {
    "compound": "Cc1cnc(C(=O)NCCc2ccc(S(=O)(=O)NC(=O)NC3CCCCC3)cc2)cn1",
    "measurement.target": "Alpha-2C adrenergic receptor (Homo sapiens) (UniProt P18825)",
    "slope": 0.0053
  },
  {
    "compound": "CC1(C)S[C@@H]2[C@H](NC(=O)Cc3ccccc3)C(=O)N2[C@H]1C(=O)O",
    "measurement.target": "Alpha-2C adrenergic receptor (Homo sapiens) (UniProt P18825)",
    "slope": 0.00416
  },
  {
    "compound": "COc1cc(C2C(C#N)=C(N)Oc3cc(N)ccc32)cc(OC)c1OC (stereo not given)",
    "measurement.target": "Alpha-2C adrenergic receptor (Homo sapiens) (UniProt P18825)",
    "slope": 0.00523
  },
  {
    "compound": "CCCNCC(O)COc1ccccc1C(=O)CCc1ccccc1 (stereo not given)",
    "measurement.target": "Alpha-2C adrenergic receptor (Homo sapiens) (UniProt P18825)",
    "slope": 0.00393
  },
  {
    "compound": "CC(C)C[C@H]1C(=O)N2CCC[C@H]2[C@]2(O)O[C@](NC(=O)[C@@H]3C=C4c5cccc6[nH]c(Br)c(c56)CC4N(C)C3)(C(C)C)C(=O)N12 (stereo not given in full)",
    "measurement.target": "Alpha-2C adrenergic receptor (Homo sapiens) (UniProt P18825)",
    "slope": 0.00416
  },
  {
    "compound": "COc1cccc2c1C(=O)c1c(O)c3c(c(O)c1C2=O)C[C@@](O)(C(C)=O)C[C@@H]3O[C@H]1C[C@H](N)[C@H](O)[C@H](C)O1",
    "measurement.target": "Alpha-2C adrenergic receptor (Homo sapiens) (UniProt P18825)",
    "slope": 0.00285
  },
  {
    "compound": "CCOc1ccc2nc(S(N)(=O)=O)sc2c1",
    "measurement.target": "Alpha-2C adrenergic receptor (Homo sapiens) (UniProt P18825)",
    "slope": 0.00518
  },
  {
    "compound": "Cc1ccccc1-c1nc(CS(=O)(=O)CC(=O)N(C)C2CCCCC2)c(C)o1",
    "measurement.target": "Alpha-2C adrenergic receptor (Homo sapiens) (UniProt P18825)",
    "slope": 0.00717
  },
  {
    "compound": "CN(C)CCOC(C)(c1ccccc1)c1ccccn1 (stereo not given)",
    "measurement.target": "Alpha-2C adrenergic receptor (Homo sapiens) (UniProt P18825)",
    "slope": 0.00491
  },
  {
    "compound": "Cc1nnc(NS(=O)(=O)c2ccc(N)cc2)s1",
    "measurement.target": "Alpha-2C adrenergic receptor (Homo sapiens) (UniProt P18825)",
    "slope": 0.00418
  }
]
